The origin of these recorded values is PubChem BioAssay (EPA / NIEHS).

- procedureSummary: ATG_GLI_CIS: Attagene CIS-FACTORIAL HepG2 Assay for human Zinc Finger Protein GLI1 (AID 2282945)
- particulars: HepG2, Attagene cis-factorial reporter mRNA, GLI element; actives raise or lower the signal
Activity calls are given as the source filed them. How the source made its calls: active means hit-call score of the fitted dose curve at least 0.9, where 1 is the maximum; inactive means score below 0.9.
Please state which outcome applies, choosing from active, inactive

{"columns": ["molecule", "assignedLabel"],
 "data": [
  ["COC(=O)OC", "inactive"],
  ["O=C(O)c1ccc([N+](=O)[O-])cc1", "inactive"],
  ["O=C(Oc1ccccc1)c1ccc(O)cc1", "inactive"],
  ["CC(C)CCCCCCCOC(=O)c1ccc(C(=O)OCCCCCCCC(C)C)c(C(=O)OCCCCCCCC(C)C)c1", "inactive"],
  ["CCCc1c(OCCCOc2ccc(OCC(=O)O)cc2)ccc(C(C)=O)c1O", "inactive"]
]}

q: Dear colleague, could you share the recorded outcome for C=CC(=O)OCCn1c(=O)n(CCOC(=O)C=C)c(=O)n(CCOC(=O)C=C)c1=O when you have a moment?
a: inactive

q: // outcome(item) with item = CC(=O)/C=C/C1=C(C)CCCC1(C)C
a: inactive

q: I'd appreciate the recorded outcome for Cc1ccc2sc3cccc(C)c3c2c1 from this test.
a: inactive

q: What did the test return for C[Si](O[Si](C)(C)C)O[Si](C)(C)C ?
a: inactive

q: Record request — test call for CC(C)(N)CO
a: inactive

q: What call does the record list for Clc1ccc(Cl)c(Cl)c1Cl ?
a: inactive

q: Answer briefly: the call reported for CC(C)[C@@H]1CC[C@@H](C)CC1=O in this assay.
a: inactive

q: Any idea what this test logged for N#Cc1ccccc1 ?
a: inactive

q: Tell me the assay call for CCCC(=O)C(C)=O please.
a: inactive

q: Which outcome was entered for the molecule C=CC(=O)NCOCC(C)C in this test?
a: inactive

q: Field: outcome | Entry: O=C(O)CN(CCN(CC(=O)O)CC(=O)O)CCN(CC(=O)O)CC(=O)O
a: inactive

q: Which outcome was entered for the molecule O=C(O)c1ccc(C(=O)O)cc1 in this test?
a: inactive

q: GET /call?item= CN(C)CCCN returns the recorded outcome of this test.
a: inactive

q: // param item: CCCCCC=CCC(=O)OC ; yields the recorded call
a: inactive

q: What classification did O=[N+]([O-])c1ccc(C=Cc2ccc([N+](=O)[O-])cc2S(=O)(=O)O)c(S(=O)(=O)O)c1 end up with in this test?
a: inactive

q: Could you please tell me the result logged for CCOc1ccccc1OCC in this assay?
a: inactive
